SYSTEM TESTED: Bcr-Abl (Homo sapiens, UniProt P00519)
Sequence (P00519 whole entry): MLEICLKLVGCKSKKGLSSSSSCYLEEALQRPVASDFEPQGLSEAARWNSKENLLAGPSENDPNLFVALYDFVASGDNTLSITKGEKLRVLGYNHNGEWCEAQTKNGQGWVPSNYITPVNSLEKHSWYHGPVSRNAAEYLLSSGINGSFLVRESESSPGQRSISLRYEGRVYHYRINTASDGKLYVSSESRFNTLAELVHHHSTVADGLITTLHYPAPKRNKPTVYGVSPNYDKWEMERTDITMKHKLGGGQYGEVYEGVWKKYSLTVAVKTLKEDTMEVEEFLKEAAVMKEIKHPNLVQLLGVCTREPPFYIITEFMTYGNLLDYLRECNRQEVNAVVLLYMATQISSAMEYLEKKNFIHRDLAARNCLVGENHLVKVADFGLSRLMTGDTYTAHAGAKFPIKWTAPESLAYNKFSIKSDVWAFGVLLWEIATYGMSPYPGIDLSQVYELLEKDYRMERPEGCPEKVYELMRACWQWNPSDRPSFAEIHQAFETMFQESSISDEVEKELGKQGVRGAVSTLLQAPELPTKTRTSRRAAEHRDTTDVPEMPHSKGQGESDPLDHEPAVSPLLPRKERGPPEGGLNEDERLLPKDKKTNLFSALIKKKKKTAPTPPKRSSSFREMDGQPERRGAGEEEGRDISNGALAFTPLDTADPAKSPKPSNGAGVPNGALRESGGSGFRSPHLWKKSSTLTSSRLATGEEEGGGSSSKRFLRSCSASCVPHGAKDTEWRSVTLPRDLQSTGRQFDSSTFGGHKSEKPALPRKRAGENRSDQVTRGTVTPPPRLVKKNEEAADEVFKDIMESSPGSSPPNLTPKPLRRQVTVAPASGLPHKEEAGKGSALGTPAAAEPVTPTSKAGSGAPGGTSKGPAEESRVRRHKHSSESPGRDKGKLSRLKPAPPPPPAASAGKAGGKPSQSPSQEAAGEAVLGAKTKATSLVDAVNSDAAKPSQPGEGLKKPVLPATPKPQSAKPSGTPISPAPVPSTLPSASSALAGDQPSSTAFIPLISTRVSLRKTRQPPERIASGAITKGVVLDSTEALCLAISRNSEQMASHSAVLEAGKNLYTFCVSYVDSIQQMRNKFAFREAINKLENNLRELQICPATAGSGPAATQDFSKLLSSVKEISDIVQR
METHOD NOTES: FRET-based Z'-Lyte kinase assay, Abl
Assay type: biochemical
CONDITION PARAMETERS: 10 μM ATP; cells printed in μM
ENDPOINT LABEL: IC50

>>> observed_measurement("Cc1cn(-c2cc(NC(=O)c3ccc4c(c3)CN(c3cncnc3)CC4C)cc(C(F)(F)F)c2)cn1 (stereo not shown)")
"7.2 µM"

----------
Tested on: PANC-1 cells
METHOD NOTES: MTS viability assay, PANC-1
Type: cell-based
CONDITION PARAMETERS: Homo sapiens, PANC-1, read-out: 500 nM 7rh + Gem Avg IC50s Plastic, PANC-1, plastic; fixed 500 nM 7rh with gemcitabine titration
pIC50: −log10 of the molar value.
ENDPOINT LABEL: pIC50

>>> observed_measurement("Nc1ccn([C@@H]2O[C@H](CO)[C@@H](O)C2(F)F)c(=O)n1")
"≥ 8.70"
